system: Escherichia coli TOP10; assay: shrunken log2 fold change of peptide-encoding DNA abundance (4.5 h post-induction vs induction); higher = less antimicrobial activity (less host growth inhibition); conditions: time post-induction: 4.5 h; library: site-saturation at positions 5, 18, 19, 20
Entries get a class label from measured shrunken log2 fold change. See ranges: lower band (below -0.1), central band (-0.1 to below 0.1), upper band (0.1 or more)

[[record]]
sequence_string = "RRIRPRPPRLPRPRPRPTGVPRP"
target = "Escherichia coli TOP10"
category = "central band"

[[record]]
sequence_string = "RRIRKRPPRLPRPRPRPNHLPRP"
target = "Escherichia coli TOP10"
category = "central band"

[[record]]
sequence_string = "RRIRDRPPRLPRPRPRPFGHPRP"
target = "Escherichia coli TOP10"
category = "lower band"

[[record]]
sequence_string = "RRIRCRPPRLPRPRPRPFDVPRP"
target = "Escherichia coli TOP10"
category = "lower band"

[[record]]
sequence_string = "RRIRDRPPRLPRPRPRPREKPRP"
target = "Escherichia coli TOP10"
category = "upper band"

[[record]]
sequence_string = "RRIRTRPPRLPRPRPRPQVHPRP"
target = "Escherichia coli TOP10"
category = "lower band"

[[record]]
sequence_string = "RRIRMRPPRLPRPRPRPTHCPRP"
target = "Escherichia coli TOP10"
category = "upper band"

[[record]]
sequence_string = "RRIRRRPPRLPRPRPRPWHVPRP"
target = "Escherichia coli TOP10"
category = "lower band"

[[record]]
sequence_string = "RRIRMRPPRLPRPRPRPNTNPRP"
target = "Escherichia coli TOP10"
category = "upper band"


====

system: Escherichia coli TOP10; test: shrunken log2 fold change of peptide-encoding DNA abundance (4.5 h post-induction vs induction); higher = less antimicrobial activity (less host growth inhibition); details: time post-induction: 4.5 h; library: site-saturation at positions 5, 18, 19, 20
Here, each record is paired with measured shrunken log2 fold change data.
Quantity Measured: shrunken log2 fold change

[[record]]
sequence_string = "RRIRTRPPRLPRPRPRPSYGPRP"
result_number = -0.259

[[record]]
sequence_string = "RRIRTRPPRLPRPRPRPFWWPRP"
result_number = 0.299

[[record]]
sequence_string = "RRIRERPPRLPRPRPRPDKSPRP"
result_number = -1.19

[[record]]
sequence_string = "RRIRHRPPRLPRPRPRPAYLPRP"
result_number = -0.323

[[record]]
sequence_string = "RRIRKRPPRLPRPRPRPSMQPRP"
result_number = 0.293

[[record]]
sequence_string = "RRIRRRPPRLPRPRPRPNPMPRP"
result_number = 0.359

[[record]]
sequence_string = "RRIRLRPPRLPRPRPRPCCRPRP"
result_number = 0.0477

[[record]]
sequence_string = "RRIRVRPPRLPRPRPRPDLAPRP"
result_number = 3.31

[[record]]
sequence_string = "RRIRYRPPRLPRPRPRPRMQPRP"
result_number = -0.673

[[record]]
sequence_string = "RRIRPRPPRLPRPRPRPVHSPRP"
result_number = 0.127

[[record]]
sequence_string = "RRIRFRPPRLPRPRPRPLKNPRP"
result_number = -0.193

[[record]]
sequence_string = "RRIRDRPPRLPRPRPRPIKWPRP"
result_number = -0.147

[[record]]
sequence_string = "RRIRPRPPRLPRPRPRPQTKPRP"
result_number = -0.0309

[[record]]
sequence_string = "RRIRSRPPRLPRPRPRPSALPRP"
result_number = -0.0202

[[record]]
sequence_string = "RRIRSRPPRLPRPRPRPDVCPRP"
result_number = 0.0421

[[record]]
sequence_string = "RRIRWRPPRLPRPRPRPPAVPRP"
result_number = 0.698

[[record]]
sequence_string = "RRIRARPPRLPRPRPRPKKNPRP"
result_number = 0.441

[[record]]
sequence_string = "RRIRRRPPRLPRPRPRPEFFPRP"
result_number = 0.216


====

Here, each record is paired with measured shrunken log2 fold change data.
system: Escherichia coli TOP10; assay: shrunken log2 fold change of peptide-encoding DNA abundance (4.5 h post-induction vs induction); higher = less antimicrobial activity (less host growth inhibition); details: time post-induction: 4.5 h; library: site-saturation at positions 5, 18, 19, 20;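 note: peptides expressed intracellularly from a pBAD plasmid library in pooled LB shake-flask culture, induced with 0.3% L-arabinose, DNA abundance read by NGS, three biological replicates, DESeq2 with apeglm shrinkage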
Quantity Measured: shrunken log2 fold change

[[record]]
sequence_string = "RRIRKRPPRLPRPRPRPWSQPRP"
target = "Escherichia coli TOP10"
result = -0.0225

[[record]]
sequence_string = "RRIRQRPPRLPRPRPRPDRIPRP"
target = "Escherichia coli TOP10"
result = -0.185

[[record]]
sequence_string = "RRIRTRPPRLPRPRPRPSPQPRP"
target = "Escherichia coli TOP10"
result = -0.133

[[record]]
sequence_string = "RRIRSRPPRLPRPRPRPKGIPRP"
target = "Escherichia coli TOP10"
result = -0.357

[[record]]
sequence_string = "RRIRSRPPRLPRPRPRPTWNPRP"
target = "Escherichia coli TOP10"
result = -0.0149

[[record]]
sequence_string = "RRIRVRPPRLPRPRPRPPDAPRP"
target = "Escherichia coli TOP10"
result = 0.254

[[record]]
sequence_string = "RRIRYRPPRLPRPRPRPEINPRP"
target = "Escherichia coli TOP10"
result = 0.0373

[[record]]
sequence_string = "RRIRYRPPRLPRPRPRPIAAPRP"
target = "Escherichia coli TOP10"
result = -0.158

[[record]]
sequence_string = "RRIRKRPPRLPRPRPRPRHAPRP"
target = "Escherichia coli TOP10"
result = 0.727

[[record]]
sequence_string = "RRIRWRPPRLPRPRPRPVQPPRP"
target = "Escherichia coli TOP10"
result = 0.0708

[[record]]
sequence_string = "RRIRYRPPRLPRPRPRPEANPRP"
target = "Escherichia coli TOP10"
result = -0.127

[[record]]
sequence_string = "RRIRDRPPRLPRPRPRPRKQPRP"
target = "Escherichia coli TOP10"
result = -0.0319

[[record]]
sequence_string = "RRIRNRPPRLPRPRPRPTATPRP"
target = "Escherichia coli TOP10"
result = 0.433

[[record]]
sequence_string = "RRIRWRPPRLPRPRPRPQQKPRP"
target = "Escherichia coli TOP10"
result = -0.0581

[[record]]
sequence_string = "RRIRGRPPRLPRPRPRPSRLPRP"
target = "Escherichia coli TOP10"
result = 0.204

[[record]]
sequence_string = "RRIRQRPPRLPRPRPRPHKDPRP"
target = "Escherichia coli TOP10"
result = -0.105

[[record]]
sequence_string = "RRIRYRPPRLPRPRPRPYFHPRP"
target = "Escherichia coli TOP10"
result = -1.4

[[record]]
sequence_string = "RRIRLRPPRLPRPRPRPFWCPRP"
target = "Escherichia coli TOP10"
result = -0.0123

[[record]]
sequence_string = "RRIRTRPPRLPRPRPRPLHWPRP"
target = "Escherichia coli TOP10"
result = 0.111

[[record]]
sequence_string = "RRIRLRPPRLPRPRPRPENGPRP"
target = "Escherichia coli TOP10"
result = -0.108

[[record]]
sequence_string = "RRIRERPPRLPRPRPRPHMLPRP"
target = "Escherichia coli TOP10"
result = -0.376

[[record]]
sequence_string = "RRIRSRPPRLPRPRPRPDNNPRP"
target = "Escherichia coli TOP10"
result = -0.268

[[record]]
sequence_string = "RRIRSRPPRLPRPRPRPSFYPRP"
target = "Escherichia coli TOP10"
result = -0.684

[[record]]
sequence_string = "RRIRTRPPRLPRPRPRPQEMPRP"
target = "Escherichia coli TOP10"
result = -0.0617

[[record]]
sequence_string = "RRIRPRPPRLPRPRPRPQTPPRP"
target = "Escherichia coli TOP10"
result = 0.313

[[record]]
sequence_string = "RRIRMRPPRLPRPRPRPIYMPRP"
target = "Escherichia coli TOP10"
result = -0.0618

[[record]]
sequence_string = "RRIRGRPPRLPRPRPRPTTWPRP"
target = "Escherichia coli TOP10"
result = 0.521

[[record]]
sequence_string = "RRIRHRPPRLPRPRPRPSCSPRP"
target = "Escherichia coli TOP10"
result = -0.876

[[record]]
sequence_string = "RRIRERPPRLPRPRPRPKFPPRP"
target = "Escherichia coli TOP10"
result = 0.0509

[[record]]
sequence_string = "RRIRGRPPRLPRPRPRPLMCPRP"
target = "Escherichia coli TOP10"
result = 0.55

[[record]]
sequence_string = "RRIRTRPPRLPRPRPRPVVLPRP"
target = "Escherichia coli TOP10"
result = -0.149

[[record]]
sequence_string = "RRIRHRPPRLPRPRPRPKWQPRP"
target = "Escherichia coli TOP10"
result = 0.0671

[[record]]
sequence_string = "RRIRRRPPRLPRPRPRPPSKPRP"
target = "Escherichia coli TOP10"
result = 0.172

[[record]]
sequence_string = "RRIRSRPPRLPRPRPRPKNTPRP"
target = "Escherichia coli TOP10"
result = -0.356

[[record]]
sequence_string = "RRIRQRPPRLPRPRPRPNKPPRP"
target = "Escherichia coli TOP10"
result = -0.195

[[record]]
sequence_string = "RRIRPRPPRLPRPRPRPEEFPRP"
target = "Escherichia coli TOP10"
result = -0.0108

[[record]]
sequence_string = "RRIRTRPPRLPRPRPRPPATPRP"
target = "Escherichia coli TOP10"
result = 0.213

[[record]]
sequence_string = "RRIRRRPPRLPRPRPRPMSNPRP"
target = "Escherichia coli TOP10"
result = -0.0453

[[record]]
sequence_string = "RRIRNRPPRLPRPRPRPMLHPRP"
target = "Escherichia coli TOP10"
result = -0.263

[[record]]
sequence_string = "RRIRVRPPRLPRPRPRPCHSPRP"
target = "Escherichia coli TOP10"
result = -0.225

[[record]]
sequence_string = "RRIRVRPPRLPRPRPRPPSPPRP"
target = "Escherichia coli TOP10"
result = 0.417

[[record]]
sequence_string = "RRIRYRPPRLPRPRPRPLCPPRP"
target = "Escherichia coli TOP10"
result = -0.397

[[record]]
sequence_string = "RRIRHRPPRLPRPRPRPYEMPRP"
target = "Escherichia coli TOP10"
result = -0.383

[[record]]
sequence_string = "RRIRGRPPRLPRPRPRPFQFPRP"
target = "Escherichia coli TOP10"
result = 0.00963

[[record]]
sequence_string = "RRIRCRPPRLPRPRPRPKRSPRP"
target = "Escherichia coli TOP10"
result = 0.235

[[record]]
sequence_string = "RRIRSRPPRLPRPRPRPDTTPRP"
target = "Escherichia coli TOP10"
result = -0.191

[[record]]
sequence_string = "RRIRERPPRLPRPRPRPSFLPRP"
target = "Escherichia coli TOP10"
result = -0.789

[[record]]
sequence_string = "RRIRGRPPRLPRPRPRPMQGPRP"
target = "Escherichia coli TOP10"
result = 0.0711

[[record]]
sequence_string = "RRIRMRPPRLPRPRPRPCITPRP"
target = "Escherichia coli TOP10"
result = 0.156

[[record]]
sequence_string = "RRIRWRPPRLPRPRPRPKREPRP"
target = "Escherichia coli TOP10"
result = 0.0441

